Where these numbers come from: patent US8618094B2

test system: S. pneumoniae 104835
METRIC: MIC (µg/mL)

a: COc1c(N2C[C@]3(N)CCC[C@]3(F)C2)c(F)cc2c(=O)c(C(=O)O)cn([C@@H]3C[C@@H]3F)c12 [Example 15]
b: COc1c(N2CC3(N)CCC4CC43C2)c(F)cc2c(=O)c(C(=O)O)cn([C@@H]3C[C@@H]3F)c12 (single isomer, unassigned) [Example 27]
Ask: Lab log: flag the item ( a or b ) with the smaller MIC figure. Identify your pick by its label.
Reply: b

1: COc1c(N2C[C@H]3[C@H](C)C[C@@]3(N)C2)c(F)cc2c(=O)c(C(=O)O)cn([C@@H]3C[C@@H]3F)c12 [Example 5]
2: Cc1c(N2C[C@@H]3CCOC[C@@]3(N)C2)c(F)cc2c(=O)c(C(=O)O)cn([C@@H]3C[C@@H]3F)c12 [Example 44]
Ask: Pick the one with the larger MIC: 1 vs 2 Identify your pick by its label.
Reply: 2
